# reported-conditions: 313.15 K; 101.33 kPa; Liquid; Vibrating tube method
property-label: mass density (kg/m3)

CC(CC(C)(C)C)CP(=O)([O-])CC(C)CC(C)(C)C.CCCCCCCCCCCCCC[P+](CCCCCC)(CCCCCC)CCCCCC
881.5
CCn1cc[n+](C)c1.CS(=O)(=O)[O-] [1-ethyl-3-methylimidazolium methanesulfonate]
1230.5
CC(=O)[O-].CCn1cc[n+](C)c1 [1-ethyl-3-methylimidazolium acetate]
1088.9
CCOS(=O)(=O)[O-].CCn1cc[n+](C)c1 [1-ethyl-3-methylimidazolium ethyl sulfate]
1222.9
COS(=O)(=O)[O-].C[N+](CCO)(CCO)CCO [tris(2-hydroxyethyl) methylammonium methylsulfate]
1335.7
CCn1cc[n+](C)c1.N#C[S-] [1-ethyl-3-methylimidazolium thiocyanate]
1106.9

----------
# reported-conditions: 328.15 K; 101.33 kPa; Liquid; Vibrating tube method
property-label: mass density (kg/m3)

CCn1cc[n+](C)c1.CS(=O)(=O)[O-] [1-ethyl-3-methylimidazolium methanesulfonate]
1220.3
CCOS(=O)(=O)[O-].CCn1cc[n+](C)c1 [1-ethyl-3-methylimidazolium ethyl sulfate]
1212.8
CC(=O)[O-].CCn1cc[n+](C)c1 [1-ethyl-3-methylimidazolium acetate]
1079.7
COS(=O)(=O)[O-].C[N+](CCO)(CCO)CCO [tris(2-hydroxyethyl) methylammonium methylsulfate]
1327.4
CC(CC(C)(C)C)CP(=O)([O-])CC(C)CC(C)(C)C.CCCCCCCCCCCCCC[P+](CCCCCC)(CCCCCC)CCCCCC
872.3
CCn1cc[n+](C)c1.N#C[S-] [1-ethyl-3-methylimidazolium thiocyanate]
1097.8

----------
# reported-conditions: 298.15 K; 101.33 kPa; Liquid; Vibrating tube method
property-label: mass density (kg/m3)

CC(=O)[O-].CCn1cc[n+](C)c1 [1-ethyl-3-methylimidazolium acetate]
1098.3
COS(=O)(=O)[O-].C[N+](CCO)(CCO)CCO [tris(2-hydroxyethyl) methylammonium methylsulfate]
1344.3
CCn1cc[n+](C)c1.N#C[S-] [1-ethyl-3-methylimidazolium thiocyanate]
1116.1
CC(CC(C)(C)C)CP(=O)([O-])CC(C)CC(C)(C)C.CCCCCCCCCCCCCC[P+](CCCCCC)(CCCCCC)CCCCCC
890.8
CCn1cc[n+](C)c1.CS(=O)(=O)[O-] [1-ethyl-3-methylimidazolium methanesulfonate]
1240.9
CCOS(=O)(=O)[O-].CCn1cc[n+](C)c1 [1-ethyl-3-methylimidazolium ethyl sulfate]
1233.2

----------
# reported-conditions: 318.15 K; 101.33 kPa; Liquid; Vibrating tube method
property-label: mass density (kg/m3)

CCn1cc[n+](C)c1.N#C[S-] [1-ethyl-3-methylimidazolium thiocyanate]
1103.8
CCn1cc[n+](C)c1.CS(=O)(=O)[O-] [1-ethyl-3-methylimidazolium methanesulfonate]
1227
CC(=O)[O-].CCn1cc[n+](C)c1 [1-ethyl-3-methylimidazolium acetate]
1085.8

(a) COS(=O)(=O)[O-].C[N+](CCO)(CCO)CCO [tris(2-hydroxyethyl) methylammonium methylsulfate]
(b) CC(CC(C)(C)C)CP(=O)([O-])CC(C)CC(C)(C)C.CCCCCCCCCCCCCC[P+](CCCCCC)(CCCCCC)CCCCCC
(Q) Identify the entry with the smaller mass density: a or b . Mark your selection by writing its label.
(A) b
(b: 878.4 kg/m3, a: 1332.9 kg/m3)

----------
# reported-conditions: 303.15 K; 101.33 kPa; Liquid; Vibrating tube method
property-label: mass density (kg/m3)

Below are worked cases with known answers.
CCOS(=O)(=O)[O-].CCn1cc[n+](C)c1 [1-ethyl-3-methylimidazolium ethyl sulfate]
1229.8
CC(=O)[O-].CCn1cc[n+](C)c1 [1-ethyl-3-methylimidazolium acetate]
1095.1
CCn1cc[n+](C)c1.N#C[S-] [1-ethyl-3-methylimidazolium thiocyanate]
1113

(P) COS(=O)(=O)[O-].C[N+](CCO)(CCO)CCO [tris(2-hydroxyethyl) methylammonium methylsulfate]
(Q) CC(CC(C)(C)C)CP(=O)([O-])CC(C)CC(C)(C)C.CCCCCCCCCCCCCC[P+](CCCCCC)(CCCCCC)CCCCCC
(Q) Of P and Q , which one carries the higher reported mass density? Mark your selection by writing its label.
(A) P
(P: 1341.4 kg/m3, Q: 887.7 kg/m3)

----------
# reported-conditions: 308.15 K; 101.33 kPa; Liquid; Vibrating tube method
property-label: mass density (kg/m3)

COS(=O)(=O)[O-].C[N+](CCO)(CCO)CCO [tris(2-hydroxyethyl) methylammonium methylsulfate]
1338.5
CCn1cc[n+](C)c1.N#C[S-] [1-ethyl-3-methylimidazolium thiocyanate]
1109.9
CCn1cc[n+](C)c1.CS(=O)(=O)[O-] [1-ethyl-3-methylimidazolium methanesulfonate]
1233.9
CC(CC(C)(C)C)CP(=O)([O-])CC(C)CC(C)(C)C.CCCCCCCCCCCCCC[P+](CCCCCC)(CCCCCC)CCCCCC
884.6
CCOS(=O)(=O)[O-].CCn1cc[n+](C)c1 [1-ethyl-3-methylimidazolium ethyl sulfate]
1226.3
CC(=O)[O-].CCn1cc[n+](C)c1 [1-ethyl-3-methylimidazolium acetate]
1092

----------
# reported-conditions: 323.15 K; 101.33 kPa; Liquid; Vibrating tube method
property-label: mass density (kg/m3)

CC(=O)[O-].CCn1cc[n+](C)c1 [1-ethyl-3-methylimidazolium acetate]
1082.8
COS(=O)(=O)[O-].C[N+](CCO)(CCO)CCO [tris(2-hydroxyethyl) methylammonium methylsulfate]
1330.2
CC(CC(C)(C)C)CP(=O)([O-])CC(C)CC(C)(C)C.CCCCCCCCCCCCCC[P+](CCCCCC)(CCCCCC)CCCCCC
875.3
CCn1cc[n+](C)c1.N#C[S-] [1-ethyl-3-methylimidazolium thiocyanate]
1100.8
CCOS(=O)(=O)[O-].CCn1cc[n+](C)c1 [1-ethyl-3-methylimidazolium ethyl sulfate]
1216.2
CCn1cc[n+](C)c1.CS(=O)(=O)[O-] [1-ethyl-3-methylimidazolium methanesulfonate]
1223.7

----------
# reported-conditions: 293.15 K; 101.33 kPa; Liquid; Vibrating tube method
property-label: mass density (kg/m3)

CC(=O)[O-].CCn1cc[n+](C)c1 [1-ethyl-3-methylimidazolium acetate]
1101.5

(a) COS(=O)(=O)[O-].C[N+](CCO)(CCO)CCO [tris(2-hydroxyethyl) methylammonium methylsulfate]
(b) CC(CC(C)(C)C)CP(=O)([O-])CC(C)CC(C)(C)C.CCCCCCCCCCCCCC[P+](CCCCCC)(CCCCCC)CCCCCC
(Q) Identify the entry with the smaller mass density: a or b . Mark your selection by writing its label.
(A) b
(b: 894 kg/m3, a: 1347.2 kg/m3)

----------
# reported-conditions: 293.15 K; 101.33 kPa; Liquid; Vibrating tube method
property-label: mass density (kg/m3)

CCn1cc[n+](C)c1.CS(=O)(=O)[O-] [1-ethyl-3-methylimidazolium methanesulfonate]
1244.4
CCOS(=O)(=O)[O-].CCn1cc[n+](C)c1 [1-ethyl-3-methylimidazolium ethyl sulfate]
1236.7
CCn1cc[n+](C)c1.N#C[S-] [1-ethyl-3-methylimidazolium thiocyanate]
1119.2
